- System: human pancreatic carcinoma PANC-1 cells
- ASSAY INFO: Cytotoxicity (WST-8) against PANC-1 cells in Glucose Deficient or General Glucose Medium
- Assay type: cell-based
- CONDITION: Homo sapiens; PANC-1 cells, Glucose Deficient Medium, 12 h with sample, WST-8
- Experimental: Human pancreatic carcinoma cell line PANC-1 was maintained in the DMEM supplemented with heat-inactivated 10% FBS and kanamycin (50 µg/ml) in a humidified atmosphere with 5% CO2 at 37 °C. […] The bioassay was carried out according to a method described previously. […] The cell proliferation was detected using the WST-8 colorimetric reagent. The IC50 value was determined by linear interpolation from the growth inhibition curve. […]
I'd appreciate it if you could supply IC50 values for the items below.

Exam item: // fetch IC50; item: CCCCCC[C@H]1C(=O)O[C@H](C)[C@H](NC(=O)c2cccc(NC=O)c2O)C(=O)O[C@@H](C)[C@@H]1OC(=O)CC(C)C [Antimycin A, reference compound] ; system: human pancreatic carcinoma PANC-1 cells
Marked response: 0.0003 µM

Exam item: // fetch IC50; item: COc1ccc2cc(NC(=O)C3=NO[C@H]4[C@H](O)C=C[C@@H](O)[C@@]4(O)C3)c(=O)oc2c1OC [Compound 2, trichodermamide A] ; system: human pancreatic carcinoma PANC-1 cells
Marked response: 270 µM

Exam item: // fetch IC50; item: COc1ccc(C2SSC34CC5(O)C(Cl)C=CC(O)C5ON3C(=O)C2NC4=O)c(O)c1OC (stereo not shown) [Compound 1, DC1149B] ; system: human pancreatic carcinoma PANC-1 cells
Marked response: 0.02 µM

Exam item: // fetch IC50; item: COc1ccc2cc(NC(=O)C34CC5(O)C(C=CC(O)C5ON3)S4)c(=O)oc2c1OC (stereo not shown) ; system: human pancreatic carcinoma PANC-1 cells
Marked response: > 1000 µM
